- tested_system: Met (Homo sapiens (Human))
- Sequence (P08581 25-1390): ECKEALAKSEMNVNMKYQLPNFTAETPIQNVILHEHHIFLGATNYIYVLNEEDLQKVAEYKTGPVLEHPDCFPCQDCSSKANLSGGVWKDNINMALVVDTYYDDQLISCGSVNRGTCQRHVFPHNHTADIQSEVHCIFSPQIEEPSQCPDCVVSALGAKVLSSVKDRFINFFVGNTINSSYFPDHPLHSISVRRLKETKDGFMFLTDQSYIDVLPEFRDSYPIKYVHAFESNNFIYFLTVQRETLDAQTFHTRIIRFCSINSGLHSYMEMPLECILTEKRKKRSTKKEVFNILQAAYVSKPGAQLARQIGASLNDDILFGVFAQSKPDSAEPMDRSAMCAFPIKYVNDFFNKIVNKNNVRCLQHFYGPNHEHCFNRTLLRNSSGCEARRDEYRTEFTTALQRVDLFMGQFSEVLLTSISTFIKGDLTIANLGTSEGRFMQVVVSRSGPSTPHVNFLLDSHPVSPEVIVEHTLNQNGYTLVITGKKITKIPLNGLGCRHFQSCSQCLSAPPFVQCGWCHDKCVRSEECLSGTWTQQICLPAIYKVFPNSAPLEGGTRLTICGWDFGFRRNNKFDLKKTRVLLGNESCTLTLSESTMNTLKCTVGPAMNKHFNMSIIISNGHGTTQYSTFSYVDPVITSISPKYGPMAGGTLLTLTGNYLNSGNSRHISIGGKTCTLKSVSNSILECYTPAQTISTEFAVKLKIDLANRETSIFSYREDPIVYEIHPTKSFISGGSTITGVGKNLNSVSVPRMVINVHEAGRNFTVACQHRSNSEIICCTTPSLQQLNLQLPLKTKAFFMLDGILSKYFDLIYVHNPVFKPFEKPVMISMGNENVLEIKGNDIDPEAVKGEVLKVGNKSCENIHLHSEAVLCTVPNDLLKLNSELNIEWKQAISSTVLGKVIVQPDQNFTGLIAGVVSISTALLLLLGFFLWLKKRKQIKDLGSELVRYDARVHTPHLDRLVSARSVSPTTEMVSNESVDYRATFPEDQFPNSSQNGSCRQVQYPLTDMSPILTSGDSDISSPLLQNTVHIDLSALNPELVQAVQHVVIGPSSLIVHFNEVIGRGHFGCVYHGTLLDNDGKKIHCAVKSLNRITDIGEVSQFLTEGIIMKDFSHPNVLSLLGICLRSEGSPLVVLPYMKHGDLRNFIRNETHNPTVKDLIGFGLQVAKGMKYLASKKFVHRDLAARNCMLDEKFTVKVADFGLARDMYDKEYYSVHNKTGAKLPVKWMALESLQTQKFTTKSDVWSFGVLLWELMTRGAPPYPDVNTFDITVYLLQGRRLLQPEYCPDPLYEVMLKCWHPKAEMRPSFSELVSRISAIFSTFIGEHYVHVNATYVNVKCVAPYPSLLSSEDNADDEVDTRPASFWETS
- procedure_summary: Met autophosphorylation ELISA in PC-3 cells
- test_parameters: cellular, HGF stimulated, read-out: c-Met IC50
value_kind: IC50

These solved cases illustrate the format of a correct answer.
CNC(=O)c1cc2c(Oc3ccc(NC(=O)C4(C(=O)Nc5ccc(C(F)(F)F)cc5)CC4)cc3F)ccnc2cc1OC
0.1 to 0.3 µM
COC(=O)Nc1ccc2c(Oc3ccc(NC(=O)C4(C(=O)Nc5ccc(F)cc5)CC4)cc3)ccnc2c1
0.1 to 0.3 µM
CNC(=O)c1ccc2nccc(Oc3ccc(NC(=O)C4(C(=O)Nc5ccc(F)cc5)CC4)cc3)c2c1
0.1 to 0.3 µM

As a next step, examine the molecule that follows.
IN: Need IC50 of COc1cc2nccc(Oc3ccc(NC(=O)C4(C(=O)Nc5ccc(F)cc5)CC4)cc3F)c2cc1C(N)=O , thanks.
OUT: ≤ 0.01 µM

Provenance of the data: patent US11542259B2
